- Study target: purified human recombinant PDI (rPDI) (Homo sapiens, UniProt P07237)
- Sequence (P07237 18-508): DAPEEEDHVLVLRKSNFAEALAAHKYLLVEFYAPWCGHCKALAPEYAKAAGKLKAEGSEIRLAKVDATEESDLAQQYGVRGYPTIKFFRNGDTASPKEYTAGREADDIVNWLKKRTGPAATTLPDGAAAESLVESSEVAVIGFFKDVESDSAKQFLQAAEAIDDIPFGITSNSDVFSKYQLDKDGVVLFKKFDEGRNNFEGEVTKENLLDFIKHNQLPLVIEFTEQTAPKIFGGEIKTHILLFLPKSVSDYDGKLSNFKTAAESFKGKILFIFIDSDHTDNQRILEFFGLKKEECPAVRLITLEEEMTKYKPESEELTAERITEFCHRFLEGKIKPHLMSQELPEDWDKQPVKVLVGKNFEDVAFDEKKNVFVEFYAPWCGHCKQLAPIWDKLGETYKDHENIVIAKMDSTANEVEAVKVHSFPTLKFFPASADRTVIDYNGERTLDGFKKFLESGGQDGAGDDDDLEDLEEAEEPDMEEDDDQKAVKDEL
- Assay name: Recombinant PDI reductase activity (Di-E-GSSG assay)
- Stated conditions: read-out: rPDI IC50; human recombinant PDI, Di-E-GSSG, 5 μM DTT
Reported property: IC50
Please state the value followed by its unit.

Documented IC50 of O=C1C=CC(=O)c2c(O)cccc21 [JUG (7), 5-hydroxy-1,4-naphthoquinone, reference compound] : 1100 nM

Documented IC50 of O=C1C=C(Sc2ccc(F)cc2)C(=O)c2c(O)cccc21 : 1160 nM

Documented IC50 of Cc1ccc(SC2=CC(=O)c3cccc(O)c3C2=O)cc1 : 3450 nM

Documented IC50 of CC(=O)OC[C@H]1O[C@H](OC2=CC(=O)c3cccc(O)c3C2=O)[C@H](OC(C)=O)[C@@H](OC(C)=O)[C@@H]1OC(C)=O : 630 nM

Documented IC50 of CC(=O)OC[C@H]1O[C@@H](SC2=C(c3ccc(O)cc3O)C(=O)c3c(O)cccc3C2=O)[C@H](OC(C)=O)[C@@H](OC(C)=O)[C@@H]1OC(C)=O : 670 nM

Documented IC50 of COc1cccc(SC2=CC(=O)c3cccc(O)c3C2=O)c1 : 710 nM

Documented IC50 of COc1ccc(OC2=CC(=O)c3cccc(O)c3C2=O)cc1 : 1370 nM

Documented IC50 of CC(C)(C)c1ccc(SC2=CC(=O)c3cccc(O)c3C2=O)cc1 : 1290 nM

----------
Would you kindly list log10 IC50 for each of these compounds?
- Tested on: washed human platelets
- Assay name: Collagen-induced platelet aggregation
- Format: cell-based
- Stated conditions: Platelet; washed human platelets, collagen (5 μg/mL)
In our notation, the value equals log10 of IC50 in µM.

Documented log10 IC50 of CN(C)C1=CC(=O)c2c(O)cccc2C1=O [Compound 24] : 1.20

Documented log10 IC50 of COc1ccc(SC2=C(c3ccc(O)cc3O)C(=O)c3c(O)cccc3C2=O)cc1 [Compound 30] : 0.72

Documented log10 IC50 of O=C1C=C(Br)C(=O)c2c(O)cccc21 [Compound 17, 2-Bromo-8-hydroxynaphthalene-1,4-dione] : -0.28

Documented log10 IC50 of CC(C)(C)c1ccc(CSC2=CC(=O)c3cccc(O)c3C2=O)cc1 [Compound 20] : 0.47

Documented log10 IC50 of COc1ccccc1SC1=CC(=O)c2cccc(O)c2C1=O [Compound 10] : -0.15

Documented log10 IC50 of COc1ccc(SC2=CC(=O)c3cccc(O)c3C2=O)cc1 [Compound 8] : -0.54

Documented log10 IC50 of COc1ccc(OC2=CC(=O)c3cccc(O)c3C2=O)cc1 [Compound 21] : -0.46

----------
Would you kindly list IC50 for each of these compounds?
- Study target: platelet surface PDI (Homo sapiens)
- Assay name: Cell surface PDI reductase activity on intact human platelets (Di-E-GSSG assay)
- Stated conditions: read-out: Surface PDI IC50; intact human platelets, Di-E-GSSG, 5 μM DTT
# unit: nM | format: bare number

Documented IC50 of O=C1C=C(c2ccc(O)cc2O)C(=O)c2c(O)cccc21 : 530

Documented IC50 of COc1ccc(SC2=CC(=O)c3cccc(O)c3C2=O)cc1 : 1370

Documented IC50 of Cc1ccc(SC2=CC(=O)c3cccc(O)c3C2=O)cc1 : 1840

Documented IC50 of COc1ccc(SC2=C(c3ccc(O)cc3O)C(=O)c3c(O)cccc3C2=O)cc1 : 470

Documented IC50 of COc1cccc(SC2=CC(=O)c3cccc(O)c3C2=O)c1 : 840

Documented IC50 of COc1ccc(SC2=CC(=O)c3cccc(O)c3C2=O)cc1OC : 1280

Documented IC50 of O=C1C=C(Br)C(=O)c2c(O)cccc21 [Compound 17, 2-Bromo-8-hydroxynaphthalene-1,4-dione] : 1130

----------
Would you kindly list pIC50 for each of these compounds?
- Test system: washed human platelets
- Assay name: Collagen-induced platelet aggregation
- Assay type: cell-based
- Stated conditions: Platelet; washed human platelets, collagen (5 μg/mL)
Scale: pIC50 equals -log10([C]), with [C] in mol/L.

Documented pIC50 of COc1ccc(SC2=CC(=O)c3cccc(O)c3C2=O)cc1OC [Compound 11] : 5.80

Documented pIC50 of O=C1C=CC(=O)c2c(O)cccc21 [JUG (7), 5-hydroxy-1,4-naphthoquinone, reference compound] : 5.93

Documented pIC50 of O=C1C=C(c2ccc(O)cc2O)C(=O)c2c(O)cccc21 [Compound 29] : 5.15

Documented pIC50 of COc1cccc(SC2=CC(=O)c3cccc(O)c3C2=O)c1 [Compound 9] : 6.42

Documented pIC50 of CC(=O)OC[C@H]1O[C@H](OC2=CC(=O)c3cccc(O)c3C2=O)[C@H](OC(C)=O)[C@@H](OC(C)=O)[C@@H]1OC(C)=O [Compound 22] : 6.30

----------
- Study target: purified human recombinant PDI (rPDI) (Homo sapiens)
- Assay name: Recombinant PDI reductase activity (Di-E-GSSG assay)
Reported property: IC50 (µM)
# unit: µM | format: bare number

Item CC(=O)OC1O[C@H](CSC2=CC(=O)c3cccc(O)c3C2=O)[C@@H](OC(C)=O)C(OC(C)=O)[C@H]1OC(C)=O (stereo in doubt) was tested on purified human recombinant PDI (rPDI) (Homo sapiens); the reported IC50 is 1.87

----------
- Study target: UniProt P07237
- Assay name: Cell surface PDI reductase activity on intact human platelets (Di-E-GSSG assay)
- Stated conditions: read-out: Surface PDI IC50; intact human platelets, Di-E-GSSG, 5 μM DTT
Reported property: IC50 (nM)
# unit: nM | format: bare number

Documented IC50 of O=C1C=CC(=O)c2c(O)cccc21 [JUG (7), 5-hydroxy-1,4-naphthoquinone, reference compound] : 630

Documented IC50 of O=C1C=C(Sc2ccc(F)cc2)C(=O)c2c(O)cccc21 [Compound 15] : 1670

Documented IC50 of CC(C)(C)c1ccc(SC2=CC(=O)c3cccc(O)c3C2=O)cc1 [Compound 13] : 1500

Documented IC50 of COc1ccc(OC2=CC(=O)c3cccc(O)c3C2=O)cc1 [Compound 21] : 1120

Documented IC50 of CC(C)(C)c1ccc(CSC2=CC(=O)c3cccc(O)c3C2=O)cc1 [Compound 20] : 1200

Documented IC50 of COc1ccccc1SC1=CC(=O)c2cccc(O)c2C1=O [Compound 10] : 790

----------
- Study target: platelet surface PDI (Homo sapiens, UniProt P07237)
- Sequence (P07237 18-508): as above
- Assay name: Cell surface PDI reductase activity on intact human platelets (Di-E-GSSG assay)
- Stated conditions: read-out: Surface PDI IC50; intact human platelets, Di-E-GSSG, 5 μM DTT
Reported property: IC50

Documented IC50 of CN(C)C1=CC(=O)c2c(O)cccc2C1=O [Compound 24] : > 20 µM

Documented IC50 of COc1ccc(SC2=C(O)C(=O)c3cccc(O)c3C2=O)cc1 [Compound 28] : > 20 µM

Documented IC50 of O=C1C(O)=CC(=O)c2c(O)cccc21 [Compound 26, 3,8-Dihydroxynaphthalene-1,4-dione] : > 20 µM

----------
Would you kindly list pIC50 for each of these compounds?
- Tested on: washed human platelets
- Assay name: Collagen-induced platelet aggregation
- Type: cell-based
- Stated conditions: Platelet; washed human platelets, collagen (5 μg/mL)
Scale: pIC50 equals -log10([C]), with [C] in mol/L.

Documented pIC50 of CC(C)(C)c1ccc(SC2=CC(=O)c3cccc(O)c3C2=O)cc1 [Compound 13] : 6.19

Documented pIC50 of Cc1ccc(SC2=CC(=O)c3cccc(O)c3C2=O)cc1 [Compound 12] : 6.12

----------
- Test system: washed human platelets
- Assay name: Collagen-induced platelet aggregation
- Format: cell-based
- Stated conditions: Platelet; washed human platelets, collagen (5 μg/mL)
Would you kindly list IC50 for each of these compounds?

Documented IC50 of COc1ccc(SC2=C(O)C(=O)c3cccc(O)c3C2=O)cc1 [Compound 28] : > 20 µM

Documented IC50 of O=C1C=C(O)C(=O)c2c(O)cccc21 [Compound 25, 2,8-Dihydroxynaphthalene-1,4-dione] : > 20 µM

Documented IC50 of COc1ccc(SC2=C(O)C(=O)c3c(O)cccc3C2=O)cc1 [Compound 27] : > 20 µM
